Documented LD50 at 168 h across a set of compounds
# Assay explanation: Acute oral toxicity (LD50 p.o.)
# Type: in vivo
# Setup conditions: mouse, in vivo, po; mice, single dose, 7 days survival period
Answer in mg/kg, number only, no unit symbol.

Give the measured LD50 at 168 h of O=C(CCCN1CCN(CCOc2c(Cl)cccc2Cl)CC1)c1ccc(F)cc1 [2,6-dichlorophenyl, reference compound] .
1020

Next up: Cc1ccc(C)c(OCCN2CCN(CCCC(=O)c3ccc(F)cc3)CC2)c1 [2,5-dimethylphenyl]
1240

Next up: Cc1cccc(OCCN2CCN(CCCC(=O)c3ccc(F)cc3)CC2)c1C [2,3-dimethylphenyl]
1040

====

# System: phenyl quinone writhing
# Assay explanation: Analgesic effect, Writhing test (phenyl quinone)
# Format: in vivo, male albino mice (NMRI strain)
# Setup conditions: Mus musculus; oral dose equivalent to 100 mg/kg oral amidopyrine; phenyl quinone 1.5 mg/kg; read-out: Writhing-test (dose producing same effect as amidopyrine)
Documented log10(ED (effect equal to amidopyrine 100 mg/kg)) across a set of molecules
The figures below represent log10 of ED (effect equal to amidopyrine 100 mg/kg), where ED (effect equal to amidopyrine 100 mg/kg) is stated in mg/kg.

Consider the worked cases shown below.
Molecule	Target	Result number
Cc1cccc(OCCN2CCN(CCCC(=O)c3ccc(F)cc3)CC2)c1C	phenyl quinone writhing	1.36
Cc1ccc(C)c(OCCN2CCN(CCCC(=O)c3ccc(F)cc3)CC2)c1	phenyl quinone writhing	1.23
O=C(CCCN1CCN(CCOc2ccc([N+](=O)[O-])cc2)CC1)c1ccc(F)cc1	phenyl quinone writhing	0.26
Cc1ccc(Cl)c(OCCN2CCN(CCCC(=O)c3ccc(F)cc3)CC2)c1	phenyl quinone writhing	0.78
Cc1cc(Cl)ccc1OCCN1CCN(CCCC(=O)c2ccc(F)cc2)CC1	phenyl quinone writhing	1.83
Cc1cc(C)cc(OCCN2CCN(CCCC(=O)c3ccc(F)cc3)CC2)c1	phenyl quinone writhing	0.84

Give the measured log10(ED (effect equal to amidopyrine 100 mg/kg)) of O=C(CCCN1CCN(Cc2ccc(F)cc2)CC1)c1ccc(F)cc1 [fluorobenzyl, no O-bridge, reference compound] .
1.69

Next up: COc1ccc(CN2CCN(CCCC(=O)c3ccc(F)cc3)CC2)cc1 [methoxyphenyl, no O-bridge, reference compound]
1.79

Next up: O=C(CCCN1CCN(CCOc2ccc(Cl)cc2)CC1)c1ccc(F)cc1 [4-chlorophenyl, reference compound]
0.74

====

Documented LD50 at 168 h across a set of compounds
# Assay explanation: Acute oral toxicity (LD50 p.o.)
# Assay type: in vivo
# Setup conditions: mouse, in vivo, po; mice, single dose, 7 days survival period
Answer in mg/kg, number only, no unit symbol.

Compound	LD50 at 168 h [mg/kg]
O=C(CCCN1CCN(CCOc2ccc([N+](=O)[O-])cc2)CC1)c1ccc(F)cc1 [4-nitrophenyl]	215
Cc1cc(C)cc(OCCN2CCN(CCCC(=O)c3ccc(F)cc3)CC2)c1 [3,5-dimethylphenyl]	297
O=C(CCCN1CCN(Cc2ccc(F)cc2)CC1)c1ccc(F)cc1 [fluorobenzyl, no O-bridge, reference compound]	431
Cc1cc(Cl)ccc1OCCN1CCN(CCCC(=O)c2ccc(F)cc2)CC1 [4-chloro-2-methylphenyl]	1000
O=C(CCCN1CCN(CCOc2ccc(Cl)cc2)CC1)c1ccc(F)cc1 [4-chlorophenyl, reference compound]	336
Cc1ccc(Cl)c(OCCN2CCN(CCCC(=O)c3ccc(F)cc3)CC2)c1 [2-chloro-5-methylphenyl]	464

Next:
Give the measured LD50 at 168 h of COc1ccc(CN2CCN(CCCC(=O)c3ccc(F)cc3)CC2)cc1 [methoxyphenyl, no O-bridge, reference compound] .
431
